Provenance of the data: patent US9469616B2

Kindly state MIC for each of the entries shown.
Just the number in µg/mL, nothing appended.

Problem: # query: MIC | item NCCCOc1cc(-c2ccc3ccc(-c4cc(OCCCN)c(OCCCN)c(OCCCN)c4)cc3c2)cc(OCCCN)c1OCCCN [Compound 116] | system: Staphylococcus aureus
Solution: 3.13

Problem: # query: MIC | item NCCCOc1cc(-c2cc(-c3ccccc3)cc(-c3cc(OCCCN)c(OCCCN)c(OCCCN)c3)c2)cc(OCCCN)c1OCCCN [Compound 115] | system: Staphylococcus aureus
Solution: 6.25

Problem: # query: MIC | item NCCCOc1cc(OCCCN)cc(-c2ccc3ccc(-c4cc(OCCCN)cc(OCCCN)c4)cc3c2)c1 [Compound 119] | system: Staphylococcus aureus
Solution: 12.5

Problem: # query: MIC | item NCCCOc1cc(OCCCN)cc(-c2cccc(-c3cc(OCCCN)cc(OCCCN)c3)c2)c1 [Compound 111] | system: Staphylococcus aureus
Solution: 12.5

---

Kindly state MIC for each of the entries shown.
Just the number in µg/mL, nothing appended.

Problem: # query: MIC | item NCCCOc1cc(OCCCN)cc(-c2cccc(-c3cc(OCCCN)cc(OCCCN)c3)c2)c1 [Compound 111] | system: Escherichia coli
Solution: 50

Problem: # query: MIC | item NCCCOc1cc(-c2ccc3ccc(-c4cc(OCCCN)c(OCCCN)c(OCCCN)c4)cc3c2)cc(OCCCN)c1OCCCN [Compound 116] | system: Escherichia coli
Solution: 3.13

Problem: # query: MIC | item NCCCOc1cc(-c2cc(-c3ccccc3)cc(-c3cc(OCCCN)c(OCCCN)c(OCCCN)c3)c2)cc(OCCCN)c1OCCCN [Compound 115] | system: Escherichia coli
Solution: 6.25

Problem: # query: MIC | item NCCCOc1cc(OCCCN)cc(-c2ccc3ccc(-c4cc(OCCCN)cc(OCCCN)c4)cc3c2)c1 [Compound 119] | system: Escherichia coli
Solution: 25

---

- System: S. aureus (27660)
- Measurement Notes: MIC assay (Table 1)
- Assay type: cell-based
- Run Conditions: Staphylococcus aureus, isolate 27660
Test Readout: MIC50 (µg/mL)
Just the number in µg/mL, nothing appended.

Problem: Please give the measured MIC50 for this compound: NCCCOc1cc(OCCCN)cc(-c2cccc(-c3cc(OCCCN)cc(OCCCN)c3)c2)c1 [Compound 111]
Solution: 12.5

Problem: Please give the measured MIC50 for this compound: NCCCOc1ccc(-n2cc(-c3cccc(-c4cn(-c5ccc(OCCCN)c(OCCCN)c5)nn4)c3)nn2)cc1OCCCN [Compound 101]
Solution: 12.5

Problem: Please give the measured MIC50 for this compound: NCCCOc1cc(-c2cn(-c3cccc(OCCCN)c3)nn2)cc(-c2cn(-c3cccc(OCCCN)c3)nn2)c1 [Compound 107]
Solution: 50

Problem: Please give the measured MIC50 for this compound: NCCCOc1cc(OCCCN)cc(-c2cc(-c3cc(OCCCN)cc(OCCCN)c3)cc(-c3cc4ccccc4[nH]3)c2)c1 [Compound 108]
Solution: 1.56

---

Kindly state MIC50 for each of the entries shown.
- Tested on: S. aureus (27660)
- Measurement Notes: MIC assay (Table 1)
- Assay type: cell-based
- Run Conditions: Staphylococcus aureus, isolate 27660
Answer by giving the amount and then stating its unit.

Problem: # query: MIC50 | item "N=C(N)NCCCOc1cc(-c2cn(-c3cc(OCCCNC(=N)N)cc(OCCCNC(=N)N)c3)nn2)cc(-c2cn(-c3cc(OCCCNC(=N)N)cc(OCCCNC(=N)N)c3)nn2)c1" | system: S. aureus (27660)
Solution: 50 µg/mL

Problem: # query: MIC50 | item "NCCCOc1ccc(-n2cc(-c3ccc4ccc(-c5cn(-c6ccc(OCCCN)c(OCCCN)c6)nn5)cc4c3)nn2)cc1OCCCN" | system: S. aureus (27660)
Solution: 25 µg/mL

Problem: # query: MIC50 | item "NCCCOc1cc(OCCCN)cc(-n2cc(-c3ccc4ccc(-c5cn(-c6cc(OCCCN)cc(OCCCN)c6)nn5)cc4c3)nn2)c1" | system: S. aureus (27660)
Solution: 12.5 µg/mL
